Task for the reader: assign each of the following compounds its reported activity at 100 µM.
# target_under_test: human ABHD12 (Homo sapiens)
# Construct: expressed in transfected cells; host or cells: HEK293T (transient transfection; membrane fraction)
# Sequence (Q8N2K0 1-398): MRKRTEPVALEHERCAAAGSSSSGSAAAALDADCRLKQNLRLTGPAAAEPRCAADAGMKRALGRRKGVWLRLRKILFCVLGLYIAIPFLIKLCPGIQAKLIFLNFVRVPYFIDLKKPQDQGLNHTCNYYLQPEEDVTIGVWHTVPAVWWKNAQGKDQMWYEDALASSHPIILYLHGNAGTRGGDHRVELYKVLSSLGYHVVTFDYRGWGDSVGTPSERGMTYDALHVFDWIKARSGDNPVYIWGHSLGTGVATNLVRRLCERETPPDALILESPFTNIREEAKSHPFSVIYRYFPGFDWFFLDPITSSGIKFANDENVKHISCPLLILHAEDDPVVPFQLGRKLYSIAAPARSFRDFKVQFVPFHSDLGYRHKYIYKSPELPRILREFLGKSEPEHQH
# method_notes: ABHD12 activity by competitive ABPP with FP-TAMRA
# Type: biochemical
# particulars: 100 µM compound; competitive ABPP with probe FP-TAMRA (250 nM); read-out: ABHD12 Inhibition (%)
Give bare numbers, in %.

See these solved cases before continuing.
compound	quantity_unit	recorded_value
O=c1c(O)c(-c2cc(O)c(O)c(O)c2)oc2cc(O)cc(O)c12	%	63.9
O=[N+]([O-])c1ncc[nH]1	%	87.7

Provide reported activity at 100 µM for each item, in the same order as listed.
1. CN(C)Cc1c[nH]c2ccccc12
2. CCn1cc(C(=O)O)c(=O)c2ccc(C)nc21
3. Cc1cc(O)c2c(c1)C(=O)c1cc(O)cc(O)c1C2=O
4. OC[C@H]1O[C@@H](Oc2ccc(O)cc2)[C@H](O)[C@@H](O)[C@@H]1O
5. O=C(O)[C@H]1O[C@@H](Oc2cc3oc(-c4ccccc4)cc(=O)c3c(O)c2O)[C@H](O)[C@@H](O)[C@@H]1O
6. COc1ccc(C(C)=O)c(O)c1

1. 82.7
2. 82.2
3. 67.6
4. 66.6
5. 85.9
6. 92.2

Provide reported activity at 100 µM for each item, in the same order as listed.
1. CC1(C)[C@@H](O)CC[C@]2(C)[C@H]3C(=O)C=C4[C@@H]5C[C@@](C)(C(=O)O)CC[C@]5(C)CC[C@@]4(C)[C@]3(C)CC[C@@H]12
2. COc1ccc2cc3[n+](cc2c1OC)CCc1cc2c(cc1-3)OCO2 [compound 17, Berberine chloride]

1. 89.1
2. 86.1

====

Task for the reader: assign each of the following compounds its reported activity at 100 µM.
# target_under_test: human MAGL (Homo sapiens, UniProt Q99685)
# Construct: expressed in transfected cells; host or cells: HEK293T (transient transfection; membrane fraction)
# Sequence (Q99685 1-303): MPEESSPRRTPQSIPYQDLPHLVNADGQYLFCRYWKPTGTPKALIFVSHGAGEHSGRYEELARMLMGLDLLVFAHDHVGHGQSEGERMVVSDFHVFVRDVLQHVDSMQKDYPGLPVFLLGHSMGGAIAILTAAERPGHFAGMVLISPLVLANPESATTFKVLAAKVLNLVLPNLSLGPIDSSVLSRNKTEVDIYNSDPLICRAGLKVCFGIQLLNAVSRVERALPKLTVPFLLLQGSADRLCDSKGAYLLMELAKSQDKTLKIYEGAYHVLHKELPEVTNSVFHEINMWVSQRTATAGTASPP
# method_notes: MAGL activity assay (AA-HNA fluorogenic substrate)
# Format: biochemical
# particulars: 100 µM, AA-HNA substrate assay, Supplementary Table 1; read-out: MAGL Inhibition (%)
One number for each entry, in %.

See these solved cases before continuing.
compound	property_name	recorded_value
COc1ccc(-c2cc(=O)c3c(OC)c(OC)c(OC)c(OC)c3o2)cc1OC	activity at 100 µM	83.4
C=C[C@H]1CN2CC[C@H]1C[C@H]2[C@H](O)c1ccnc2ccccc12	activity at 100 µM	59.3
O=C(O[C@@H]1Cc2c(O)cc(O)cc2O[C@@H]1c1cc(O)c(O)c(O)c1)c1cc(O)c(O)c(O)c1 [compound 2, (-)-Epigallocatechin Gallate]	activity at 100 µM	38.9

Provide reported activity at 100 µM for each item, in the same order as listed.
1. C=C1CC[C@@H]2[C@](C)(CO)[C@H](O)CC[C@@]2(C)[C@@H]1C/C=C1/C(=O)OC[C@H]1O [compound 8, Andrographolide]
2. O=C(/C=C/c1ccc(O)c(O)c1)O[C@@H]1C[C@](O)(C(=O)O)C[C@@H](O)[C@H]1O

[83.5, 95.2]

Source listed as paper PMC9465256.
